Source of measurements: paper PMC8534150

Would you mind telling me the reported IC50 of each entry?
- Target Desc: FBPase (anoxic liver)
- Construct: native, purified from liver of 20 h anoxic turtles
- Assay Remarks: coupled phosphoglucoisomerase / glucose-6-phosphate dehydrogenase assay, NADP+ reduction at […] nm
- Condition Description: inhibitor, allosteric; pH 7.2 imidazole, 5 mM MgSO4, 0.2 mM NADP+, 22 °C; FBP 0.1 mM as optimal assay; enzyme from anoxic liver
Numbers only; they are read as µM.

**Query** # query: IC50 of entry `Nc1ncnc2c1ncn2[C@@H]1O[C@H](COP(=O)(O)OP(=O)(O)O)[C@@H](O)[C@H]1O`
**Result** 8.3

**Query** // next record `Nc1ncnc2c1ncn2[C@@H]1O[C@H](COP(=O)(O)O)[C@@H](O)[C@H]1O`
**Result** 3.6

###

- Target Desc: FBPase (anoxic liver)
- Construct: gene FBP1; native, purified from liver of 20 h anoxic turtles
- Assay Remarks: coupled phosphoglucoisomerase / glucose-6-phosphate dehydrogenase assay, NADP+ reduction at […] nm
- Type: biochemical, Trachemys scripta elegans
- Condition Description: activation constant, activator; pH 7.2 imidazole, 5 mM MgSO4, 22 °C; enzyme from anoxic liver; ATP.Mg 1:1
Endpoint: EC50 (µM)
Numbers only; they are read as µM.

**Query** # query: EC50 of entry Nc1ncnc2c1ncn2[C@@H]1O[C@H](COP(=O)(O)OP(=O)(O)OP(=O)(O)O)[C@@H](O)[C@H]1O [ATP.Mg]
**Result** 25

###

- Target Desc: FBPase (anoxic liver)
- Construct: gene FBP1; native, purified from liver of 20 h anoxic turtles
- Assay Remarks: coupled phosphoglucoisomerase / glucose-6-phosphate dehydrogenase assay, NADP+ reduction at […] nm
- Assay type: biochemical, Trachemys scripta elegans
- Condition Description: activation constant, activator; pH 7.2 imidazole, 5 mM MgSO4, 22 °C; enzyme from anoxic liver
Would you mind telling me the reported EC50 of each entry?
Please make sure the unit comes right after the number.

**Query** # query: EC50 of entry `C=C(OP(=O)(O)O)C(=O)O`
**Result** 3.3 µM

**Query** // next record `C[C@H](N)C(=O)O`
**Result** 3.3 µM

###

- Target Desc: FBPase (control liver)
- Construct: gene FBP1; native, purified from liver of normoxic control turtles (phosphocellulose, CM cellulose); ~37 kDa on SDS-PAGE; band sent for mass spectrometry; tetramer in homology model
- Assay Remarks: coupled phosphoglucoisomerase / glucose-6-phosphate dehydrogenase assay, NADP+ reduction at […] nm
- Format: biochemical, Trachemys scripta elegans
- Condition Description: activation constant, activator; pH 7.2 imidazole, 5 mM MgSO4, 22 °C
Would you mind telling me the reported pEC50 of each entry?
Convention used: pEC50 is expressed as -log10 of the molar concentration.

**Query** # query: pEC50 of entry C[C@H](N)C(=O)O [Alanine]
**Result** 5.55

**Query** // next record C=C(OP(=O)(O)O)C(=O)O [PEP]
**Result** 6.48

###

- Target Desc: FBPase (control liver)
- Construct: gene FBP1; native, purified from liver of normoxic control turtles (phosphocellulose, CM cellulose); ~37 kDa on SDS-PAGE; band sent for mass spectrometry; tetramer in homology model
- Assay Remarks: coupled phosphoglucoisomerase / glucose-6-phosphate dehydrogenase assay, NADP+ reduction at […] nm
- Assay type: biochemical, Trachemys scripta elegans
- Condition Description: inhibitor, allosteric; pH 7.2 imidazole, 5 mM MgSO4, 0.2 mM NADP+, 22 °C; FBP 0.1 mM as optimal assay; text b33 prints mM for this value, table µM
Endpoint: IC50 (mM)
Numbers only; they are read as mM.

**Query** # query: IC50 of entry Nc1ncnc2c1ncn2[C@@H]1O[C@H](COP(=O)(O)OP(=O)(O)O)[C@@H](O)[C@H]1O [ADP]
**Result** 0.0118
